target: CYP2D6 (Homo sapiens); assay: Activity of recombinant human CYP2D6 expressed in supersomes assessed as enzyme-mediated drug metabolism measured as compound remaining at 10 uM after 1 hr by LC-MS analysis; type: ADME; conditions: read-out: Stability
Sequence (P10635 whole entry): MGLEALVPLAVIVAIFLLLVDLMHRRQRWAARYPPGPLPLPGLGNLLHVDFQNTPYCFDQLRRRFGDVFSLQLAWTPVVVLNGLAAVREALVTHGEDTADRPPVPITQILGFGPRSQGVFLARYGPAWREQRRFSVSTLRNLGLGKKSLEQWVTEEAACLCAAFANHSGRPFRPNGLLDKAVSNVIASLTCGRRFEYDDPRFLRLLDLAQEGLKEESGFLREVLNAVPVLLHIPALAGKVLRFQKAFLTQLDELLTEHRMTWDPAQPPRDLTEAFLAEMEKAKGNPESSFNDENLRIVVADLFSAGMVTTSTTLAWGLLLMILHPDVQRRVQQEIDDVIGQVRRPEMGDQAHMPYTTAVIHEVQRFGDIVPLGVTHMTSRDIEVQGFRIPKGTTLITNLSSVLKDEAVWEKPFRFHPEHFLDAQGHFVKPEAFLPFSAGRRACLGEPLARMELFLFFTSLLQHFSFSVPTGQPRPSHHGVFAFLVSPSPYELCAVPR
Reported property: remaining at 1 h, 10 µM (%)
Give bare numbers, in %.

### Prompt Identify remaining at 1 h, 10 µM associated with the compound Cc1[nH]c2ccccc2c1CCNCc1ccc(/C=C/C(=O)NO)cc1
### Response 94

Origin of the recorded values: ChEMBL document CHEMBL3526051
